Target: PKM2 (Homo sapiens)
Sequence (P14618 whole entry): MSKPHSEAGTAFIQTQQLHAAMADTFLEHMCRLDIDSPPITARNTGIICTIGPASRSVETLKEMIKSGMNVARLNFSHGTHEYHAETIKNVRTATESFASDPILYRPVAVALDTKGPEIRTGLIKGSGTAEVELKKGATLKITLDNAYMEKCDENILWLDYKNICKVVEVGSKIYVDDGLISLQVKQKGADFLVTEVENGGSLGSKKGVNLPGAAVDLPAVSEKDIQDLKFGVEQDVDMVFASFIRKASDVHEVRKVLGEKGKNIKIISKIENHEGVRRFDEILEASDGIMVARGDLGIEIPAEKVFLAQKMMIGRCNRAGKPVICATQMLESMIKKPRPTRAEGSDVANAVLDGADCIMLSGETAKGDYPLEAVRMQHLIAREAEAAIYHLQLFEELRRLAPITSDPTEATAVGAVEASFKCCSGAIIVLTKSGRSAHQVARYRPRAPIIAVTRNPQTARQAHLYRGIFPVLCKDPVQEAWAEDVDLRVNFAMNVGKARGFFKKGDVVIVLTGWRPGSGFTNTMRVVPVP
Assay: PKM2 Assay (activation, LDH-coupled NADH absorbance at 340 nm)
Assay type: biochemical
Settings: activation of PKM2; PKM2 50 ng/well, ADP 0.7 mM, PEP 0.15 mM, room temperature (25° C.); read-out: AC50
VALUE_TYPE: AC50

Reference set (3 entries):
COc1ccccc1N(C)C1CN(C(=O)c2ccc(S(=O)(=O)Nc3cccc4cccnc34)cc2)C1 [Compound 128] : > 10 µM
COc1cc(C(=O)N2CC(Oc3ccccc3OC)C2)ccc1NS(=O)(=O)c1cccc2cccnc12 [Compound 158] : < 0.1 µM
COc1ccccc1OC1CN(C(=O)c2ccc(NS(=O)(=O)c3cccc4cccnc34)cc2)C1 [Compound 129] : 0.1 to 1 µM

Q. Quick check: AC50 on PKM2 (Homo sapiens), item COc1ccccc1NC1CN(C(=O)c2ccc(NS(=O)(=O)c3cccc4cccnc34)cc2)C1 [Compound 113] ?
A. < 0.1 µM
